Target: UniProt:O15164
Sequence (O15164 whole entry): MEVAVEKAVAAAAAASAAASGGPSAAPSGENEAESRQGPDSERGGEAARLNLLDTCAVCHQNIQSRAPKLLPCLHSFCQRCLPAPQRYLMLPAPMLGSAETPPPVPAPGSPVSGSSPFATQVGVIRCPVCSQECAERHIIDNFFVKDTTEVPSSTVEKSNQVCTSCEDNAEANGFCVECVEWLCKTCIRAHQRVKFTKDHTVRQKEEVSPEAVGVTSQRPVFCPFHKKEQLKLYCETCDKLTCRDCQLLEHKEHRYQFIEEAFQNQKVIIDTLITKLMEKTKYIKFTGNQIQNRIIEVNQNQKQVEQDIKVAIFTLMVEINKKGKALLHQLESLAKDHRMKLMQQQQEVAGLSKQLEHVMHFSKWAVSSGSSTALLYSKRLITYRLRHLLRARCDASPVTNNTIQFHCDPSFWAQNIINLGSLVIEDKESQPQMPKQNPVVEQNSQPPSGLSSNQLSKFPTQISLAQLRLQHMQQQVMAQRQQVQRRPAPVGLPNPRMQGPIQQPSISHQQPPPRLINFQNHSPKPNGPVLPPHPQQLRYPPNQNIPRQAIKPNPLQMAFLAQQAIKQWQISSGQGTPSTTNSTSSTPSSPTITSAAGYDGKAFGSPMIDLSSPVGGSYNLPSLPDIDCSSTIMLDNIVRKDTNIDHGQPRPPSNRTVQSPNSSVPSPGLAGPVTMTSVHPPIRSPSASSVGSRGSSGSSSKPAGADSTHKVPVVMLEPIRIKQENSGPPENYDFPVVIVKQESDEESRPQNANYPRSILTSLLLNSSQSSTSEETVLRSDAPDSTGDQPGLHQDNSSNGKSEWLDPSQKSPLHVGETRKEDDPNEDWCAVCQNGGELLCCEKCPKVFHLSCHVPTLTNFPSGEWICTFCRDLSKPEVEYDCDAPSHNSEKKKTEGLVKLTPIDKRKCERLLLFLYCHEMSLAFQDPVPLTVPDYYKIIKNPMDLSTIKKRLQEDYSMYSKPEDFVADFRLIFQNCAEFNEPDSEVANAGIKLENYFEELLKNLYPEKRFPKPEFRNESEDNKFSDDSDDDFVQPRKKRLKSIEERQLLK
Test: Inhibition of recombinant TRIM24 (unknown origin) using biotinylated H3 peptide (H3K9me3K18ac) by AlphaScreen assay
pIC50: −log10 of the molar value.
parameter: pIC50

[
  {
    "query smiles": "COc1ccc(Nc2c(-c3nc[nH]c3C)nc3cnccn23)cc1",
    "observed measurement": 5.14
  },
  {
    "query smiles": "N#Cc1ccc(CNc2c(-c3ccc4nccn4c3)nc3ccccn23)cc1",
    "observed measurement": 2.68
  },
  {
    "query smiles": "COC(=O)c1ccc2nc(-c3nc[nH]c3C)c(Nc3ccc(OC)cc3)n2c1",
    "observed measurement": 4.11
  },
  {
    "query smiles": "Cc1nc[nH]c1-c1nc2cnccn2c1NC1CCCCC1",
    "observed measurement": 4.05
  },
  {
    "query smiles": "COC(=O)c1ccc2nc(-c3ccc4nccn4c3)c(NCCN3CCOCC3)n2c1",
    "observed measurement": 3.15
  },
  {
    "query smiles": "Cc1[nH]cnc1-c1nc2ccccn2c1NCc1ccc(C#N)cc1",
    "observed measurement": 4.37
  },
  {
    "query smiles": "Cn1cccc1C=O",
    "observed measurement": 6.74
  },
  {
    "query smiles": "Cc1nc(-c2nc3cnccn3c2NCCN2CCOCC2)c[nH]1",
    "observed measurement": 2.72
  }
]

###

Organism: Homo sapiens
Assay: Selectivity index, ratio of IC50 for recombinant TRIM24 (unknown origin) to IC50 for recombinant TRIM33 PHD bromodomain (unknown origin)
This section presents molecules with their documented Ratio IC50 values.

[
  {
    "query smiles": "COC(=O)c1ccc2nc(-c3c[nH]c(C)n3)c(NC3CCCCC3)n2c1",
    "Ratio IC50": 9.48
  },
  {
    "query smiles": "Cc1[nH]cnc1-c1nc2cnccn2c1NCCN1CCOCC1",
    "Ratio IC50": 1.67
  },
  {
    "query smiles": "Cc1[nH]cnc1-c1nc2ccccn2c1NCCN1CCOCC1",
    "Ratio IC50": 13.3
  },
  {
    "query smiles": "Cc1[nH]cnc1-c1nc2cnccn2c1NCc1ccc(C#N)cc1",
    "Ratio IC50": 0.82
  },
  {
    "query smiles": "CCCOc1ccn2c(C(C)=O)cc(-c3nc4ccc(C(=O)OC)cn4c3NCc3ccc(C#N)cc3)c2c1",
    "Ratio IC50": 515
  },
  {
    "query smiles": "COCCNc1c(-c2ccc3nccn3c2)nc2ccc(Br)cn12",
    "Ratio IC50": 4.53
  },
  {
    "query smiles": "Cc1[nH]cnc1-c1nc2ccccn2c1NC1CCCCC1",
    "Ratio IC50": 8.45
  },
  {
    "query smiles": "Cc1nc(-c2nc3cnccn3c2NCCN2CCOCC2)c[nH]1",
    "Ratio IC50": 14.5
  },
  {
    "query smiles": "c1cn2c(NCCN3CCOCC3)c(-c3ccc4nccn4c3)nc2cn1",
    "Ratio IC50": 8.45
  },
  {
    "query smiles": "CCCOc1ccn2c(C(C)=O)cc(-c3nc4ccccn4c3NCCN3CCOCC3)c2c1",
    "Ratio IC50": 3.6
  },
  {
    "query smiles": "COc1ccc(CCNc2c(-c3ccc4nccn4c3)nc3ccc(Br)cn23)cc1OC",
    "Ratio IC50": 13.9
  }
]
